# target.or.test.system: angiotensin-induced vasoconstriction (rabbit aorta) (Oryctolagus cuniculus, UniProt P34976)
# Construct: The thoracic aortas were removed and cleaned of excess fat and connective tissue; from tissue; host or cells: thoracic aorta rings of New Zealand white rabbits (animals from Hazelton)
# Sequence (P34976 whole entry): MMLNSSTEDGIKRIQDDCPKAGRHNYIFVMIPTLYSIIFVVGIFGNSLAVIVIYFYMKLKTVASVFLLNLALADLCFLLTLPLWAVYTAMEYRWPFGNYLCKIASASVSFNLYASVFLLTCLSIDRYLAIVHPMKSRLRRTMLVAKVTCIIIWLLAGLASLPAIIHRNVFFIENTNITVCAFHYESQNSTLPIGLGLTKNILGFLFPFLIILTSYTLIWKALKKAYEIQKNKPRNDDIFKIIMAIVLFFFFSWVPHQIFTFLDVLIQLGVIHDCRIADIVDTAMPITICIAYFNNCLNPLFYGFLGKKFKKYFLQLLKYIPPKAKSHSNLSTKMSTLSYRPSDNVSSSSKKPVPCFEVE
# assay.protocol: Rabbit Aorta Test System: antagonism of angiotensin II contraction of aortic rings
# Parameters: species or system New Zealand white rabbits
# measurement.setup: contraction to AII 10^-10 to 10^-7 M, 30 minutes incubation with compound; pA2 = -log KB
Lab note - cut at 2 nM for Kb: t if strictly below, f if not.

Use these answered entries as a reference point.
[
  {
    "compound": "CCCCCC[C@H](C(=O)N1C[C@@H](Oc2ccc(C(=O)O)cc2)C[C@H]1C(=O)O)n1cnc(NC(=O)c2ccccc2S(=O)(=O)O)c1 [Example 33]",
    "assigned.class": "t"
  },
  {
    "compound": "CCCCCC[C@H](C(=O)N1C[C@@H](Oc2ccc(C(N)=O)cc2)C[C@H]1C(=O)O)n1cnc(NC(=O)c2ccccc2S(=O)(=O)O)c1 [Example 34]",
    "assigned.class": "f"
  },
  {
    "compound": "CCCCCC[C@H](C(=O)N1C[C@@H](Oc2ccc(-c3ccccc3)cc2)C[C@H]1C(=O)O)n1cnc(NC(=O)c2ccccc2S(=O)(=O)O)c1 [Example 27]",
    "assigned.class": "f"
  },
  {
    "compound": "CCCCCCC(C(=O)NCC(F)(F)F)n1cnc(NC(=O)c2ccccc2S(=O)(=O)O)c1 (stereo not shown) [Example 3]",
    "assigned.class": "f"
  },
  {
    "compound": "CCCCCCC(C(=O)N1CCNC1=O)n1cnc(NC(=O)c2ccccc2S(=O)(=O)O)c1 (stereo not shown) [Example 5]",
    "assigned.class": "f"
  },
  {
    "compound": "CCCCCC[C@H](C(=O)N1C[C@@H](Oc2ccc(CC(=O)N3CCC[C@H]3C(=O)O)cc2)C[C@H]1C(=O)O)n1cnc(NC(=O)c2ccccc2S(=O)(=O)O)c1 [Example 47]",
    "assigned.class": "t"
  },
  {
    "compound": "CCCCCC[C@H](C(=O)N1C[C@@H](Oc2ccc(CNS(C)(=O)=O)cc2)C[C@H]1C(=O)O)n1cnc(NC(=O)c2ccccc2S(=O)(=O)O)c1 [Example 95]",
    "assigned.class": "t"
  },
  {
    "compound": "CCCCCC[C@H](C(=O)N1C[C@@H](Oc2ccc(C(=O)O)cc2)C[C@H]1C(=O)O)n1cnc(NC(=O)c2ccccc2-c2nn[nH]n2)c1 [Example 78]",
    "assigned.class": "f"
  }
]

Prompt line: Given the entry CCCCCC[C@H](C(=O)N1C[C@@H](Oc2ccc(CC)cc2)C[C@H]1C(=O)O)n1cnc(NC(=O)c2ccccc2S(=O)(=O)O)c1 [Example 23] , would its reported Kb be below 2 nM?
Response line: t

Prompt line: Given the entry CCCCCC[C@H](C(=O)N1C[C@@H](Oc2ccc3ccc(OC)cc3c2)C[C@H]1C(=O)O)n1cnc(NC(=O)c2ccccc2S(=O)(=O)O)c1 [Example 62] , would its reported Kb be below 2 nM?
Response line: t

Prompt line: Given the entry CCCCCC[C@H](C(=O)N1C[C@@H](Oc2ccc(SC)cc2)C[C@H]1C(=O)O)n1cnc(NC(=O)c2ccccc2S(=O)(=O)O)c1 [Example 30] , would its reported Kb be below 2 nM?
Response line: t

Prompt line: Given the entry CCCCCC[C@H](C(=O)N1C[C@@H](Oc2ccc(OC(C)C)cc2)C[C@H]1C(=O)O)n1cnc(NC(=O)c2ccccc2S(=O)(=O)O)c1 [Example 49] , would its reported Kb be below 2 nM?
Response line: f

Prompt line: Given the entry CCCCCC[C@H](C(=O)N1C[C@@H](Oc2cccc3ccccc23)C[C@H]1C(=O)O)n1cnc(NC(=O)c2ccccc2S(=O)(=O)O)c1 [Example 64] , would its reported Kb be below 2 nM?
Response line: f
